meta.source: patent US20260028387A1

Listing of recorded peptide exchange yield by entry.
# System Name: T1, HLA-A*02:01 (peptide-receptive MHC class I molecule of the UV-ligand exchange assay) (human)
# T1 construct: MHC monomer first loaded with a UV-sensitive peptide (not identified) that is cleaved by UV light and exchanged for the test peptide; captured on streptavidin plates
# Assay Overview: UV-ligand exchange, anti-b2m ELISA; peptide exchange yield grade (>=10% = +; >=20% = ++; >=50 = +++; >=75% = ++++)

Example results:
> print(dat)
                                     binder      value
1  LAYTLGVKQL (synthetic peptide; source genes EEF1A1P5, EEF1A1, EEF1A2) [LAYTLGVKQL (SEQ ID NO: 63)]  50 to 75%
2  KVANIIAEV (synthetic peptide; source gene RAP1GDS1) [KVANIIAEV (SEQ ID NO: 78)]  20 to 50%
3  YVVGGFLYQRL (synthetic peptide; source gene M6PR) [YVVGGFLYQRL (SEQ ID NO: 65)]  50 to 75%
4  SLDGTELQL (synthetic peptide; source gene TMEM102) [SLDGTELQL (SEQ ID NO: 29)]  50 to 75%
5  LLSGDLIFL (synthetic peptide; source gene GJB5) [LLSGDLIFL (SEQ ID NO: 6)]  50 to 75%
6  MLTELEKAL (synthetic peptide; source gene S100A8) [MLTELEKAL (SEQ ID NO: 45)]  20 to 50%
7  RLPNAGTQV (synthetic peptide; source gene ITGA6) [RLPNAGTQV (SEQ ID NO: 14)]      ≥ 75%

In the following, a different binder is considered.
Could you tell me which peptide exchange yield is on file for GLESEELEPEEL (synthetic peptide; source gene PABPN1) [GLESEELEPEEL (SEQ ID NO: 41)] ?
20 to 50%
